Taken from the supplement of paper PMC6555819.

System: PPARg:RXRa 30nM:10nM, anti-RXR (NR concentration 30 nM, RXRa partner concentration 10 nM)
ASSAY REMARKS: PBM binding z-score (relative to random genomic background probes); higher = stronger binding; sequences stand for … in GC…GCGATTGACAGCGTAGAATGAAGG
Each entry belongs to exactly one class, chosen by where its PBM binding z-score falls: bucket 1 (below 0.2), bucket 2 (0.2 to below 2), bucket 3 (2 or more)

Please review the following examples before continuing.
{"columns": ["ENTRY SEQUENCE", "LABEL CLASS"],
 "data": [
  ["CCTAGCAGGCCAATCTGGGTCACACAAGGCTTGA", "bucket 2"],
  ["CGTCCAAGGTCAAGGTCAGAGAAAGAGACTCGAA", "bucket 3"],
  ["GGAACGAGGGGAAGTTGATAGCAGAGTTTGATGG", "bucket 1"]
]}

### Prompt Which category fits this record: TATATAGGGTCAAAGGCCAGAGTACGAATGTCGA
### Response bucket 3

### Prompt Which category fits this record: TCTAGTTGGTCGAAGGTCACACACTCGAAATGCG
### Response bucket 3

### Prompt Which category fits this record: GTACCAAGGTGACTAGGTCGTTGATGAGTAGGCG
### Response bucket 1

* * *

PBM binding z-score values, listed per item
Tested on: RARa:RXR (NR concentration 270 nM, RXRa partner concentration 90 nM)
ASSAY REMARKS: PBM binding z-score (relative to random genomic background probes); higher = stronger binding; sequences stand for … in GC…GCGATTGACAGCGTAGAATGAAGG
Form field (numeric): enter value without unit.

{"columns": ["ENTRY SEQUENCE", "OBSERVED"],
 "data": [
  ["CCGACTGGGGCAAGGTTACCACAACGCACAGCCA", 0.76],
  ["CCTCGGATGACAACAGGAGGTCAGAGCTGCCAGA", 2.22],
  ["CCGACCGGGGCAAGGTTACCATAACGCACAGCCA", 1.28],
  ["TCTTGTAGATCAACAGGAGGTTAAAAAAGATCGA", 0.92],
  ["ACTAGTTGGTCATCTGAGGTCACACACAATTCGG", 4.86]
]}

### Prompt Query: PBM binding z-score; subject: CTACCAAGGTGAACAAGGTCCTTGATTACTATTC
### Response 0.944

* * *

Tested on: VDR:RXRa (NR concentration 270 nM, RXRa partner concentration 90 nM)
ASSAY REMARKS: PBM binding z-score (relative to random genomic background probes); higher = stronger binding; sequences stand for … in GC…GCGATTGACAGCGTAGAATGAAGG
PBM binding z-score values, listed per item
Form field (numeric): enter value without unit.

### Prompt Query: PBM binding z-score; subject: CCGACTGGGGCAGATAGGTTACCATACCATCCGG
### Response -0.389

### Prompt Query: PBM binding z-score; subject: TCTTGTAGATCAATAGAGGTTAAGAAGGTGCGCT
### Response 1.91

### Prompt Query: PBM binding z-score; subject: GCAACGAGGGCAAAGTTGATAGCATCTGTCGACG
### Response 1.26

### Prompt Query: PBM binding z-score; subject: AAAACAGGGTCACTAGGCCAGAGTAGGTACGAAT
### Response 4.38

### Prompt Query: PBM binding z-score; subject: CCTAATGGGCCACGAAAGGTCATTGATTCAGTGA
### Response 4.33

### Prompt Query: PBM binding z-score; subject: ATCTCTAGGTAAGACTCAATTCAGTGAAGAACGC
### Response 0.199

### Prompt Query: PBM binding z-score; subject: TCATATAGGTAAATGCTACGTGAAAGTCCGATCT
### Response 0.947

### Prompt Query: PBM binding z-score; subject: TCTATCAGGCCAGAGGGTCACTCAAGAGGTACGG
### Response 2.03

### Prompt Query: PBM binding z-score; subject: CTAACTAGGTCAAGGACAGTGAATCTCCGCACGC
### Response 1.3

* * *

Test system: PXR homodimer (NR concentration 270 nM)
ASSAY REMARKS: PBM binding z-score (relative to random genomic background probes); higher = stronger binding; sequences stand for … in GC…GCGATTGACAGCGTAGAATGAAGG
Label true (1) when PBM binding z-score >= 0.3; otherwise false (0).

Please review the following examples before continuing.
{"columns": ["ENTRY SEQUENCE", "LABEL CLASS"],
 "data": [
  ["CCGACTGGGGCAGAAAGGTTACCATCCCATCCGG", "false (0)"],
  ["AGTCAAAGTTCACTAGTTAACGTAAGATTCAGCT", "true (1)"],
  ["CCTAGTTTGTCAAGGTCACACACGCTATAGGTAC", "true (1)"],
  ["CCTCGGAGCACAACAGGAGGTCAGAGCTGCCAGA", "false (0)"]
]}

### Prompt Could you please find out whether AGAATGAGGTTATACGTATATCAGGGAAGAAAGT has PBM binding z-score that meets 0.3 or exceeds it?
### Response true (1)

* * *

PBM binding z-score values, listed per item
System: VDR homodimer (NR concentration 270 nM)
ASSAY REMARKS: PBM binding z-score (relative to random genomic background probes); higher = stronger binding; sequences stand for … in GC…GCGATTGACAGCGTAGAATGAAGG
Form field (numeric): enter value without unit.

Known PBM binding z-score results, listed for orientation:
{"columns": ["ENTRY SEQUENCE", "PBM binding z-score"],
 "data": [
  ["ATCGAAAGGTCGTGAGGAGAGTATACAGAAAGGC", 0.69],
  ["ACTAGCAGGCCAAGTTTGGATCACTCAAACAAAG", -0.0821],
  ["TCTTGTAGAGCAATAGAGGTTAAGAAAGTGCGCT", -0.332]
]}

### Prompt Query: PBM binding z-score; subject: CCGACTGGGGCAGAAAGGTTAGCATACCATCCGG
### Response -0.346

### Prompt Query: PBM binding z-score; subject: TCATATAGGTAAAAGGAGAAAGTCGGTGTGGTAA
### Response 0.471

* * *

PBM binding z-score values, listed per item
System: RXRa homodimer (NR concentration 180 nM)
ASSAY REMARKS: PBM binding z-score (relative to random genomic background probes); higher = stronger binding; sequences stand for … in GC…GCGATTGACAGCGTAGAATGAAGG
Form field (numeric): enter value without unit.

### Prompt Query: PBM binding z-score; subject: CAAACTAGGTCAAGGCCAAAGTCGGTTTGTGCCA
### Response 2.77

### Prompt Query: PBM binding z-score; subject: CCTTAAGGGTCACTCCAGGTTATAGCATCGGAGT
### Response 6.02

### Prompt Query: PBM binding z-score; subject: ATATGTAGGTTAGCTGGGCTCATTCAGACTAGGC
### Response 0.38

### Prompt Query: PBM binding z-score; subject: ATCTCTAGGTAACAAGTTCAGTGGAAGAGAGGAC
### Response 0.888

### Prompt Query: PBM binding z-score; subject: ATCTCTAGGTAAAGTTCAATGAAAGATCGATAGA
### Response 2.27

### Prompt Query: PBM binding z-score; subject: CCAGACAGGTGAGTAGGTAACTCAGCCTCGATTA
### Response 0.246

* * *

System: RARb homodimer (NR concentration 270 nM)
ASSAY REMARKS: PBM binding z-score (relative to random genomic background probes); higher = stronger binding; sequences stand for … in GC…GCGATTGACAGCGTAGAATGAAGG
READOUT TYPE: PBM binding z-score
Form field (numeric): enter value without unit.

{"columns": ["ENTRY SEQUENCE", "PBM binding z-score"],
 "data": [
  ["CAAACTAGTTCAAAGGTCAAAGTCGAGCCAACCA", 4.9]
]}

### Prompt Query: PBM binding z-score; subject: CCGAGCAGGCCAATCTGGGTCACTCAAGGCTTGA
### Response 2.28

### Prompt Query: PBM binding z-score; subject: TGGATGAGGTTAAAGATCAGGGAACGTGGCGTCG
### Response 1.38

### Prompt Query: PBM binding z-score; subject: CTACTAAGGTGAACAAGGTCGTTGATTACTATTC
### Response 2.33

### Prompt Query: PBM binding z-score; subject: ACAGACAGGTGAGTGAAGGTAATTCAGCTGGACG
### Response -0.0285

### Prompt Query: PBM binding z-score; subject: TAGCCTAGGTCATGGCCCAGTATACCACGCGAAC
### Response 3.06

### Prompt Query: PBM binding z-score; subject: CGTCCAAGGTCAAAGTTCAGTGAAGAGATGACGG
### Response 4.6

* * *

Test system: RARg:RXRa (NR concentration 270 nM, RXRa partner concentration 90 nM)
ASSAY REMARKS: PBM binding z-score (relative to random genomic background probes); higher = stronger binding; sequences stand for … in GC…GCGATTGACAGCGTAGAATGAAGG
READOUT TYPE: PBM binding z-score
Form field (numeric): enter value without unit.

Known PBM binding z-score results, listed for orientation:
{"columns": ["ENTRY SEQUENCE", "PBM binding z-score"],
 "data": [
  ["ATCTCTAGGTCAGACTCAGTTCAGTGAAGAACGC", 3.81],
  ["CAAACTAGGTCACCGGAAGGCCAAAGTCCGCATG", 5.9],
  ["CAAACTAGGTCACAGAGGTCAATGTCCGTGCGTA", 6.89],
  ["CGAACTAGGTCATCCAGGACAGAGAATACATTGA", 4.02],
  ["TCTCGGAGGCCACGAAAGGTCAGAGCTCGACATC", 4.88],
  ["GCTATCAGGCCATTTGGGTCACTCAATGACGGGC", 1.19],
  ["CCGACTGGGGCATAAGGTTAGCATAAGCCAGCCC", 0.672],
  ["CCTCGGAGGACAGAAGTTCAGAGCTGTCCGCTTT", 1.28],
  ["AAAACGAGGGCACGCTGAGTTGATAGCAGAGTAG", 2.13],
  ["CCTACTGGGCCACGCAAGGTCATTGATTCAGTGA", 3.09]
]}

### Prompt Query: PBM binding z-score; subject: ATCTCTAGGTAAGACTCAGTTCAGTGACGAACGC
### Response 0.464

### Prompt Query: PBM binding z-score; subject: TCATATAGGTAAAGGTGAAAGTCGAACGATATGA
### Response 1.65
